# Study system: rat brain farnesyl:protein transferase (rat, UniProt Q04631 2-377; Q02293 1-437)
# Method: cell-based or functional assay
Measure name: concentration giving 50% inhibition

CVIL :: 12 µM
CVFM :: 0.025 µM

Provide each entry's concentration giving 50% inhibition from the list below.
1. CVPM
2. CEIM

Reply:
["20 µM", "1.5 µM"]
